# tgt: EGFR [D770_N771insNPG] (Homo sapiens, UniProt P00533, INS772GNP)
# Construct: fused on or other part: Probably an N-terminal GST tag (Carna product)
# Sequence (P00533 with tags, fused parts or gaps INS772GNP): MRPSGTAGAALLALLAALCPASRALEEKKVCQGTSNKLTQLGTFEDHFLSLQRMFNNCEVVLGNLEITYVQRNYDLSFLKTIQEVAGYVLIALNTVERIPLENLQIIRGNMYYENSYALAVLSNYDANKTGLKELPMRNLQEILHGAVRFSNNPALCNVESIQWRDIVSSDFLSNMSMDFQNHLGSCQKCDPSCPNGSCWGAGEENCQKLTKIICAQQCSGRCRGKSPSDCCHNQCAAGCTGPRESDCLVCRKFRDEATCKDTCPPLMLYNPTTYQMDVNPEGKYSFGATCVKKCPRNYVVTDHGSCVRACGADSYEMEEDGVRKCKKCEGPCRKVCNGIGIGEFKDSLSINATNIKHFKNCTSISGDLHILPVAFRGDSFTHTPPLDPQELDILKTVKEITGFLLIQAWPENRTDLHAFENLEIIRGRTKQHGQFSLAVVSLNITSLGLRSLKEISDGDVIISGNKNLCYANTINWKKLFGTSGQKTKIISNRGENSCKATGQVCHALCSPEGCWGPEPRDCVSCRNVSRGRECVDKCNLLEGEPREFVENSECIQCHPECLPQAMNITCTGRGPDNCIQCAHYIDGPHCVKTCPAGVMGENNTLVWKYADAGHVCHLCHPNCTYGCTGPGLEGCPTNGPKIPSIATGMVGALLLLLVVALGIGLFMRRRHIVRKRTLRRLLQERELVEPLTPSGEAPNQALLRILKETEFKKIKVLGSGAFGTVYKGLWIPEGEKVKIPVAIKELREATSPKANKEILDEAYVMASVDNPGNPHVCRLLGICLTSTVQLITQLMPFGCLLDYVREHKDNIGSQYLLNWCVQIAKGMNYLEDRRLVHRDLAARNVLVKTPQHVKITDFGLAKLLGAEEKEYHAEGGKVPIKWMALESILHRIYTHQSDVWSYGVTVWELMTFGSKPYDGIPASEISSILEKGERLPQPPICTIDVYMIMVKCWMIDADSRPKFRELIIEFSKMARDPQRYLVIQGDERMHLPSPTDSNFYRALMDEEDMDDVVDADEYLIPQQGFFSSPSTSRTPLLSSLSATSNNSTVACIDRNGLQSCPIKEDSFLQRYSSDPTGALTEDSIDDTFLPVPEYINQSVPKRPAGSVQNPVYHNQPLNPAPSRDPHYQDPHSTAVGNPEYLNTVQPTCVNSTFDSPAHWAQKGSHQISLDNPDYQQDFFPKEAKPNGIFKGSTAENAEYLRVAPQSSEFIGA
# assay.summary: Phosphorylation activity inhibitory effect (in vitro), kinase assay at Carna Biosciences
# test.settings: ATP near Km

chem.smiles: C=CC(=O)N1C[C@H](n2c(C#CC3CC3)c(C(=O)N[C@H](C)c3ccccc3)c3c(N)ncnc32)C[C@@H]1C
tgt: EGFR [D770_N771insNPG] (Homo sapiens, UniProt P00533, INS772GNP)
IC50 [nM]: 0.55
